Data provenance is paper PMC11224556.

Can you tell me GI50 for the items I'm about to list?
Tested on: SJ-G2 (brain) cells
TEST_NAME: MTT growth inhibition assay (72 h)
Assay type: cell-based, human
ASSAY_CONDITIONS: Homo sapiens, SJ-G2, Brain (GBM)
Answers are plain numbers, in µM.

# example entries with known answers
[[record]]
compound = "O=c1c2ccccc2cc2[nH]c3ccccc3n12"
unit_abbreviation = "µM"
reading = 43

[[record]]
compound = "O=c1c2cccc3cccc(c32)c2nc3ccccc3n12"
unit_abbreviation = "µM"
reading = 4.6

[[record]]
compound = "O=c1c2cccc3cccc(c4n1Cc1ccccc1N=4)c32"
unit_abbreviation = "µM"
reading = 56

[[record]]
compound = "O=C(O)c1ccc2c3c1cccc3c(=O)n1c3ccccc3nc21 [Compound 14, reference compound]"
unit_abbreviation = "µM"
reading = 13

[[record]]
compound = "O=c1c2cccc3cccc(c32)c2nc3ccc(Cl)cc3n12"
unit_abbreviation = "µM"
reading = 33


Can you share its GI50? I mean this compound: O=c1c2cccc3cccc(c32)c2nc3cc(Cl)ccc3n12
8.8
